These measurements were taken from ChEMBL document CHEMBL3507680.

cytotoxicity at 70.5 h by entry:
experiment: Human HepG2 cell viability assay in 384 well format; assay type: toxicity, cell-based; parameters: dose 125 nL, time 70.5 hour; concentration not given beside the values; conditions: HepG2 cells, read-out: Inhibition
Write the answer as a number in %, unit excluded.

Example entries and their recorded answers appear below.
[
  {
    "molecule": "CC(=O)Nc1ccc(OCc2noc(C(=O)N3CCCCC3)n2)cc1",
    "cytotoxicity at 70.5 h [%]": -18.1
  },
  {
    "molecule": "CCc1oc(C(=O)NCCNS(C)(=O)=O)cc1CN1CCCC1",
    "cytotoxicity at 70.5 h [%]": 11.7
  },
  {
    "molecule": "Cc1ccc(CN(C)C(=O)NCC(C)(C)NS(C)(=O)=O)s1",
    "cytotoxicity at 70.5 h [%]": -3.9
  },
  {
    "molecule": "CC(NCCN1CCN(C(=O)C2CCCC2)CC1)c1ccccn1 (centres undefined)",
    "cytotoxicity at 70.5 h [%]": -2.99
  },
  {
    "molecule": "Cc1nsc(NC(=O)NC2(CN3CCCCC3)CCCCC2)n1",
    "cytotoxicity at 70.5 h [%]": -9.47
  },
  {
    "molecule": "O=C(CCc1nccs1)N1CCCC(N2CCNC2=O)C1 (centres undefined)",
    "cytotoxicity at 70.5 h [%]": 0.762
  },
  {
    "molecule": "CC(=O)N1CCC(NC2(Cc3cc(CC(C)C)on3)COC2)CC1",
    "cytotoxicity at 70.5 h [%]": 3.96
  },
  {
    "molecule": "COc1cccc(CN2CCC(O)(c3ccc(C)cn3)CC2)c1OC",
    "cytotoxicity at 70.5 h [%]": 4.46
  }
]

Item under review: O=C1CCC2(CCCN(c3ncc(F)cn3)CC2)N1CC1CC1 (centres undefined) . Reported cytotoxicity at 70.5 h?
-1.42

Need cytotoxicity at 70.5 h, item O=C(NCc1cccnc1)C1CC(=O)N(CC2CC2)C1 (centres undefined)
-6.68

Which cytotoxicity at 70.5 h is reported for this molecule? CC(C)(C)OC(=O)N1CSC[C@@H]1C(=O)NCc1ccncc1
-2.13

Can you look up the measured cytotoxicity at 70.5 h of O=C(Cc1ccccc1F)NCCN1CCOCC1 for me?
-6.95

So what does the record say about cytotoxicity at 70.5 h for CC(C)c1nc(C2CCCN(C(=O)CCCn3ccnc3)C2)no1 (centres undefined) ?
-0.752

Can you share its cytotoxicity at 70.5 h? I mean this molecule: COCCNC(=O)c1cc(S(=O)(=O)N2CCCCC2)cs1
-13.8

Would you kindly share the measured cytotoxicity at 70.5 h for COc1cc2c(cc1CNCc1cccnc1OC)OC(C)C2 (centres undefined) ?
-8.84

Returns the measured cytotoxicity at 70.5 h for the input molecule. Input: CC(=O)N(C)CC(=O)NC(CC(C)C)c1cccs1 (centres undefined)
-5.7

// returns reported cytotoxicity at 70.5 h for input Cc1cccc(NC2CCN(C(=O)Nc3ccc(F)cc3C)CC2)n1
-5.61

Which measured cytotoxicity at 70.5 h value corresponds to O=C(Cn1cncn1)NCC1CCN(Cc2ccccc2Cl)CC1 ?
2.75

Would you kindly share the measured cytotoxicity at 70.5 h for CCC(C)N(CCOC)Cc1nc2c(cnn2C)c(=O)[nH]1 (centres undefined) ?
17.1

Please give the measured cytotoxicity at 70.5 h for this molecule: CCOCC(=O)NCc1cc(Br)ccc1OC(F)F
0.394

Given O=C(Cc1ccc2c(c1)OCCO2)N1CCCC(n2cncn2)C1 (centres undefined) , state its recorded cytotoxicity at 70.5 h.
-9.12

Reported cytotoxicity at 70.5 h, molecule O=C(CC(F)(F)F)NC(c1ccc(Cl)cc1)c1ncon1 (centres undefined) : ____
-3.08

Which value of cytotoxicity at 70.5 h has been reported for CCN1CCC(CC(=O)N[C@H](C(=O)O)c2cccc(F)c2F)CC1 in the records?
-2.11

What does the record list as cytotoxicity at 70.5 h for Cc1cccc(C(=O)N(CCCO)S(=O)(=O)c2cccs2)c1 ?
-0.969
